Test system: Acinetobacter baumannii ATCC17978
Experiment: Antimicrobial susceptibility testing: 90% growth inhibitory concentration (IC90) determination
Assay type: cell-based
Conditions: Acinetobacter baumannii, ATCC17978, 16 h, 90% growth inhibitory concentration, Acinetobacter baumannii ATCC17978, Iso-Sensitest broth, OD 600 nm over 16 h; read-out: ATCC17978 IC90
Counter-ions that a name gives are not always drawn.
assay endpoint: IC90 (nM)
Give bare numbers, in nM.

The examples below pair each entry with its known result.
>>> reported_measurement("NCC1CCN(C(=O)c2ccc(Nc3nccn4c(-c5ccc(OC(F)F)cc5)cnc34)cc2I)CC1 [Example 51, hydrochloride]")
230
>>> reported_measurement("N#CCOc1ccc(-c2cnc3c(Nc4ccc(C(=O)N5CCN(CCN6CC(C(N)=O)C6)CC5)c(Cl)c4)nccn23)c(F)c1F [Example 94]")
54
>>> reported_measurement("CNCCN1CCN(C(=O)c2ccc(Nc3nccn4c(-c5ccc(OCC#N)c(F)c5F)cnc34)cc2Cl)CC1 [Example 91]")
49
>>> reported_measurement("CNCC(=O)N1CCN(C(=O)c2ccc(Nc3nccn4c(-c5ccc(OCC#N)c(F)c5F)cnc34)cc2Cl)CC1 [Example 77]")
73
>>> reported_measurement("N#CCOc1ccc(-c2cnc3c(Nc4ccc(C(=O)N5CCN(CCN6CCCC6)CC5)c(Cl)c4)nccn23)c(Cl)c1F [Example 26]")
86

Dear reader, for each entry below, please note its IC90.
1. COc1ccc(-c2cnc3c(Nc4ccc(C(=O)N5CCN(C)CC5)cc4)nccn23)cc1 [Example 64]
2. COc1ccc(-c2cnc3c(Nc4ccc(C(=O)N5CCC(O)CC5)cc4)nccn23)cc1Cl [Example 62]

Result:
1. 1400
2. 900
